Data origin, for the record: patent US20090156577A1

Would you kindly list MIC for each of these compounds?
tested on: pathogenic bacteria; test: MIC by microdilution broth method (NCCLS M7-A4), in vitro antibacterial activity; format: cell-based; details: Streptococcus pneumoniae, Organism B: fluoroquinolone-resistant clinical isolate of Streptococcus pneumoniae (QRDR amino acid substitutions)
One number for each entry, in µg/mL.

> print(dat)
                    structure.smiles.string  experimental.result
1  N#C/C(CN)=C1/CCCN(c2nc3c(cc2F)c(=O)c(C(=O)O)cn3C2CC2)C1                    8
2  C[C@H]1COc2c(N3CCC(=C(F)CN(C)C)CC3)c(F)cc3c(=O)c(C(=O)O)cn1c23                   16
3  Nc1nc(-n2cc(C(=O)O)c(=O)c3cc(F)c(N4CC(=C(Cl)CO)C4)c(Cl)c32)c(F)cc1F                 0.12
4  NC/C(F)=C1\CCCN(c2c(F)cc3c(=O)c(C(=O)O)cn(C4CC4)c3c2OC(F)F)C1                    4
5  CN(C)CC(F)=C1CCN(c2cc3c(cc2F)c(=O)c(C(=O)O)cn3C2CC2)CC1                   16

In the following, a different compound is considered.
Challenge: Please give the measured MIC for this compound: COc1c(N2CCC(=C(F)CCN)CC2)c(F)cc2c(=O)c(C(=O)O)cn(C3CC3)c12
Response given: 0.5
